Origin of the recorded values: patent US20240252488A1

# System: FADD−/− Jurkat cells
# assay name: Necroptosis inhibition assay, TNF-α-induced necroptosis (CellTiter-Glo 2.0)
# Assay type: cell-based, human
# reported conditions: compound 10 μM; TNF-α 15 ng/mL, FADD−/− Jurkat cells
Rule: YES for Necroptosis inhibition assay (Rescue %) 10 μM not less than 10%, NO for anything less.

molecule	class name
Nc1ncc(-c2cnn(C3CCN(C(=O)CC4CCN(C(=O)CCc5cccc6c5CN(C5CCC(=O)NC5=O)C6=O)CC4)CC3)c2)nc1C(=O)O[C@@H](C(=O)Nc1ccc(F)cc1)c1ccccc1 (stereo partly drawn)	YES
Nc1ncc(-c2cnn(C3CCN(C(=O)CC4CCN(C(=O)C5CCN(c6ccc7nnn(C8CCC(=O)NC8=O)c(=O)c7c6)CC5)CC4)CC3)c2)nc1C(=O)O[C@@H](C(=O)Nc1ccc(F)cc1)c1ccccc1 (stereo partly drawn)	YES
Nc1ncc(-c2cnn(C3CCN(CCC4CCN(C(=O)CCc5ccc6c(c5)CN(C5CCC(=O)NC5=O)C6=O)CC4)CC3)c2)nc1C(=O)O[C@@H](C(=O)Nc1ccc(F)cc1)c1ccccc1 (stereo partly drawn)	NO
Nc1ncc(-c2cnn(C3CCN(C(=O)CCC4CCN(C(=O)C5CCN(c6ccc7nnn(C8CCC(=O)NC8=O)c(=O)c7c6)CC5)CC4)CC3)c2)nc1C(=O)O[C@@H](C(=O)Nc1ccc(F)cc1)c1ccccc1 (stereo partly drawn)	YES
Nc1ncc(-c2cnn(C3CCN(CC4CCN(C(=O)Cc5cccc(NC6=CC(=O)N(C7CCC(=O)NC7=O)C6=O)c5)CC4)CC3)c2)nc1C(=O)O[C@@H](C(=O)Nc1ccc(F)cc1)c1ccccc1 (stereo partly drawn)	NO
Nc1ncc(-c2cnn(C3CCN(C(=O)CCC4CCN(C(=O)C5CN(c6ccc7nnn(C8CCC(=O)NC8=O)c(=O)c7c6)C5)CC4)CC3)c2)nc1C(=O)O[C@@H](C(=O)Nc1ccc(F)cc1)c1ccccc1 (stereo partly drawn)	YES

* * *

# target desc: MLKL (Homo sapiens)
# assay name: MLKL degradation assay in HepG2 cell line (western blot)
# Type: cell-based
# Set-up: endogenous in cells; host or cells: HepG2 or HaCaT
# reported conditions: compound 1 μM; cell line not given
value kind: Degradation assay (Degradation %) 1 μM

compound	unit tag	reading
Nc1ncc(-c2cnn(C3CCN(CCOC4CCN(C(=O)c5ccc6c(c5)CN(C5CCC(=O)NC5=O)C6=O)CC4)CC3)c2)nc1C(=O)O[C@@H](C(=O)Nc1ccc(F)cc1)c1ccccc1 (stereo partly drawn)	%	84.54
Nc1ncc(-c2cnn(C3CCN(C(=O)C4CCN(C(=O)C5CCN(c6cccc7nnn(C8CCC(=O)NC8=O)c(=O)c67)CC5)CC4)CC3)c2)nc1C(=O)O[C@@H](C(=O)Nc1ccc(F)cc1)c1ccccc1 (stereo partly drawn)	%	75.28
Nc1ncc(-c2cnn(C3CCN(C(=O)CC4CCN(C(=O)C5CCN(c6cccc7nnn(C8CCC(=O)NC8=O)c(=O)c67)CC5)CC4)CC3)c2)nc1C(=O)O[C@@H](C(=O)Nc1ccc(F)cc1)c1ccccc1 (stereo partly drawn)	%	72.66
Nc1ncc(-c2cnn(C3CCN(C(=O)COCCOCCNc4cccc5c4C(=O)N(C4CCC(=O)NC4=O)C5=O)CC3)c2)nc1C(=O)O[C@@H](C(=O)Nc1ccc(F)cc1)c1ccccc1 (stereo partly drawn)	%	14.79
COc1ccc(C(=O)N2CCC(C(=O)N3CCC4(CC3)CC(N3CCC(CN5CCC(n6cc(-c7cnc(N)c(C(=O)O[C@@H](C(=O)Nc8ccc(F)cc8)c8ccccc8)n7)cn6)CC5)CC3)C4)CC2)cc1N1CCC(=O)NC1=O	%	87.16
Nc1ncc(-c2cnn(C3CCN(CCC4CCN(C(=O)c5cccc(C(=O)NC6CCC(=O)NC6=O)c5)CC4)CC3)c2)nc1C(=O)O[C@@H](C(=O)Nc1ccc(F)cc1)c1ccccc1 (stereo partly drawn)	%	76.24
Nc1ncc(-c2cnn(C3CCN(CCOCCNC(=O)COc4cccc5c4C(=O)N(C4CCC(=O)NC4=O)C5=O)CC3)c2)nc1C(=O)O[C@@H](C(=O)Nc1ccc(F)cc1)c1ccccc1 (stereo partly drawn)	%	14.36
Nc1ncc(-c2cnn(C3CCN(CCC4CCN(C(=O)CCc5ccc6c(c5)C(=O)N(C5CCC(=O)NC5=O)C6=O)CC4)CC3)c2)nc1C(=O)O[C@@H](C(=O)Nc1ccc(F)cc1)c1ccccc1 (stereo partly drawn)	%	89.95
Nc1ncc(-c2cnn(C3CCN(CCOCCOCCOCCNC(=O)CNc4ccc5c(c4)C(=O)N(C4CCC(=O)NC4=O)C5=O)CC3)c2)nc1C(=O)O[C@@H](C(=O)Nc1ccc(F)cc1)c1ccccc1 (stereo partly drawn)	%	58.79

* * *

# target desc: MLKL (Homo sapiens, UniProt Q8NB16)
# assay name: MLKL degradation assay in HepG2 cell line (western blot)
# Format: cell-based
# Design: endogenous in cells; host or cells: HepG2 or HaCaT
# reported conditions: compound 10 μM; cell line not given
value kind: Degradation assay (Degradation %) 10 μM

compound	target desc	value kind	unit tag	reading
Nc1ncc(-c2cnn(C3CCN(C(=O)C4CCN(C(=O)COc5cccc6c5C(=O)N(C5CCC(=O)NC5=O)C6=O)CC4)CC3)c2)nc1C(=O)OC(C(=O)Nc1ccc(F)cc1)c1ccccc1 (stereo not drawn) [TDH-277]	MLKL (Homo sapiens, UniProt Q8NB16)	Degradation assay (Degradation %) 10 μM	%	53.39
Nc1ncc(-c2ccc(N3CCN(CC4CCN(C(=O)COc5ccc6c(c5)C(=O)N(C5CCC(=O)NC5=O)C6=O)CC4)CC3)nc2)nc1C(=O)OC(C(=O)Nc1ccc(F)cc1)c1ccccc1 (stereo not drawn) [TDH-256]	MLKL (Homo sapiens, UniProt Q8NB16)	Degradation assay (Degradation %) 10 μM	%	24.99
Nc1ncc(-c2cnn(C3CCN(CCOCCOCCOCCNc4cccc5c4C(=O)N(C4CCC(=O)NC4=O)C5=O)CC3)c2)nc1C(=O)O[C@@H](C(=O)Nc1ccc(F)cc1)c1ccccc1 (stereo partly drawn) [TDH-153]	MLKL (Homo sapiens, UniProt Q8NB16)	Degradation assay (Degradation %) 10 μM	%	24.63

* * *

# target desc: MLKL (Homo sapiens, UniProt Q8NB16)
# Sequence (Q8NB16 1-471): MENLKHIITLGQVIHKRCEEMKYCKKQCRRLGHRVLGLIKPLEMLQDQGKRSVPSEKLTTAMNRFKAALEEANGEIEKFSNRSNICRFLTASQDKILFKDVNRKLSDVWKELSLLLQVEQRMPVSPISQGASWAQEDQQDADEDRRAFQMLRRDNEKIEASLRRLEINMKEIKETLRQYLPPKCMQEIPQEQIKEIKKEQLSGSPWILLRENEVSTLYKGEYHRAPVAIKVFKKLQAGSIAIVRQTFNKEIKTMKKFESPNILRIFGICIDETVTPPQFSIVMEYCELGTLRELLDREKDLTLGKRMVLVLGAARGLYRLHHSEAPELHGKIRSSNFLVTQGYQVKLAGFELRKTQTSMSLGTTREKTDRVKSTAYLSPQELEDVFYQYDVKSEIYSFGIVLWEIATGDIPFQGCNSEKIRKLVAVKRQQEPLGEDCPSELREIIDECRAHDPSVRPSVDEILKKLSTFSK
Counter-ions that a name gives are not always drawn.

molecule	unit tag	Kd
Nc1ncc(-c2cnn(C3CCN(CCCC4CCN(C(=O)CNc5ccc6c(c5)C(=O)N(C5CCC(=O)NC5=O)C6=O)CC4)CC3)c2)nc1C(=O)O[C@@H](C(=O)Nc1ccc(F)cc1)c1ccccc1 (stereo partly shown) [TDH-483]	nM	2.5
Nc1ncc(-c2cnn(C3CCNCC3)c2)nc1C(=O)O[C@@H](C(=O)Nc1ccc(F)cc1)c1cccc(Cl)c1 [hydrochloride]	nM	2
Nc1ncc(-c2cnn(C3CCN(CC4CCN(C(=O)COc5cccc6c5C(=O)N(C5CCC(=O)NC5=O)C6=O)CC4)CC3)c2)nc1C(=O)N[C@@H](C(=O)Nc1ccc(F)cc1)c1ccccc1 (stereo partly shown) [TDH-186]	nM	75
Nc1ncc(-c2cnn(C3CCN(C(=O)c4cn(C5CCN(C(=O)C6CCN(c7ccc8c(c7)C(=O)N(C7CCC(=O)NC7=O)C8=O)CC6)CC5)cn4)CC3)c2)nc1C(=O)O[C@@H](C(=O)Nc1ccc(F)cc1)c1ccccc1 (stereo partly shown) [TDH-363]	nM	2.9
Nc1ncc(-c2cnn(C3CCN(C(=O)c4cn(C5CCN(C(=O)COc6cccc7c6C(=O)N(C6CCC(=O)NC6=O)C7=O)CC5)cn4)CC3)c2)nc1C(=O)O[C@@H](C(=O)Nc1ccc(F)cc1)c1ccccc1 (stereo partly shown) [TDH-354]	nM	1.4
Nc1ncc(-c2cnn(C3CCN(CCCN4CCN(C(=O)CCc5ccc6c(c5)C(=O)N(C5CCC(=O)NC5=O)C6=O)CC4)CC3)c2)nc1C(=O)O[C@@H](C(=O)Nc1ccc(F)cc1)c1ccccc1 (stereo partly shown) [TDH-383]	nM	0.42
Nc1ncc(-c2cnn(C3CCN(C(=O)CC4CCN(C(=O)C5CCN(c6cccc7c6C(=O)N(C6CCC(=O)NC6=O)C7=O)CC5)CC4)CC3)c2)nc1C(=O)O[C@@H](C(=O)Nc1ccc(F)cc1)c1ccccc1 (stereo partly shown) [TDH-341]	nM	3.5
Nc1ncc(-c2cnn(C3CCN(CCCN4CCN(C(=O)COc5ccc6c(c5)C(=O)N(C5CCC(=O)NC5=O)C6=O)CC4)CC3)c2)nc1C(=O)O[C@@H](C(=O)Nc1cccc(Cl)c1)c1ccccc1 (stereo partly shown) [TDH-485]	nM	10
Nc1ncc(-c2cnn(C3CCN(CCCN4CCN(CC5CCN(C(=O)COc6ccc7c(c6)C(=O)N(C6CCC(=O)NC6=O)C7=O)CC5)CC4)CC3)c2)nc1C(=O)O[C@@H](C(=O)Nc1ccc(F)cc1)c1ccccc1 (stereo partly shown) [TDH-440]	nM	0.51
Nc1ncc(-c2cnn(C3CCN(CC4CCN(CCC5CCN(c6cc7c(cc6F)C(=O)N(C6CCC(=O)NC6=O)C7=O)CC5)CC4)CC3)c2)nc1C(=O)O[C@@H](C(=O)Nc1ccc(F)cc1)c1ccccc1 (stereo partly shown) [TDH-513]	nM	3.9
Nc1ncc(-c2cnn(C3CCN(CCCCCCCCCCNC(=O)CNc4cccc5c4C(=O)N(C4CCC(=O)NC4=O)C5=O)CC3)c2)nc1C(=O)O[C@@H](C(=O)Nc1ccc(F)cc1)c1ccccc1 (stereo partly shown) [TDH-161]	nM	29
Nc1ncc(-c2cnn(C3CCN(CCOC4CCN(C(=O)c5ccc(C(=O)NC6CCC(=O)NC6=O)cc5)CC4)CC3)c2)nc1C(=O)O[C@@H](C(=O)Nc1ccc(F)cc1)c1ccccc1 (stereo partly shown) [TDH-538]	nM	0.31
Nc1ncc(-c2cnn(C3CCN(C4CC5(CCN(CC6CCN(C(=O)c7ccc8c(N9CCC(=O)NC9=O)coc8c7)CC6)CC5)C4)CC3)c2)nc1C(=O)O[C@@H](C(=O)Nc1ccc(F)cc1)c1ccccc1 [TDH-553]	nM	0.31
